Each entry below carries its recorded Human T-cell Binding 0.2 uM (MFI).
# experimental target: T1, human CD8 alpha (CD8A) on primary human CD8+ T cells (human, UniProt P01732 22-235)
# T1 construct: whole, on cells; also called hCD8A
# T1 sequence (P01732 22-235): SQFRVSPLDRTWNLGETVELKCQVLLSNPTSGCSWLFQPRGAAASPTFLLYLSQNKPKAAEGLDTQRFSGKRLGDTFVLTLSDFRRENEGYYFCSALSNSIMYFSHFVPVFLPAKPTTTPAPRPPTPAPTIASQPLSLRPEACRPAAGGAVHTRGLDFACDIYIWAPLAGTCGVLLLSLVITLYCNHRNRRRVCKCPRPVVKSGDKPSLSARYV
# assay: flow cytometry, human CD8+ T cells
Could you give me the number in MFI? Just the number is fine.

Worked set:
binder="P283ER9P1365_A7 (designed binder, FN3 domain) LPAPKNLVVSRVTEDSARLSWTAPDAAFDSFYIPYWESEVYGEAIALPVPGSERSYDLTGLKPGTEYQVSIIGVKGGVYSQPLAAIFTT" assay_metric="Human T-cell Binding 0.2 uM (MFI)" u=MFI readout_number=1320
binder="P283FR9P1366_H10 (designed binder, FN3 domain) LPAPKNLVVSRVTEDSARLSWTAPDAAFDSFNIAYPEWPPEGEAIVLTVPGSERSYDLTGLKPGTEYFVVIYGVKGGHLSDPLSAIFTT" assay_metric="Human T-cell Binding 0.2 uM (MFI)" u=MFI readout_number=2410

Then this binder:
# Human T-cell Binding 0.2 uM (MFI) (binder: P283GR7P1367_C9 (designed binder, FN3 domain) LPAPKNLVVSRVTEDSARLSWTAPDAAFDSFLIGYPEWPLGGEAIVLTVPGSERSYDLTGLKPGTEYWVIIYGVKGGEYSDPLSAIFTT ) is 896
